- experimental.details: gradient 5% acetonitrile 3 min, to 50% in 2 min, to 85% in 15 min, held 3 min, 100 µL/min
- measurement.context: column: Zorbax Extend-C18 2.1 x 50 mm; eluents: water / acetonitrile, 0.1% formic acid
property.measured: RP-LC retention time (s)

Cc1cc(-c2nnc3sc(COc4ccc(C(C)(C)C)cc4)nn23)n[nH]1 ... 967
O=C(NC1CC1)c1nc2ccccn2c1-c1ccc(Cl)cc1 ... 802
COc1ccc(S(=O)Cc2ccc(C(=O)NCCCN3CCc4ccccc4C3)o2)cc1 (stereo not given) ... 619
O=C(C(=O)N1CCN(c2cccc(Cl)c2)CC1)c1c[nH]c2ccccc12 ... 710
COC(=O)c1ccc(NC(=O)N2CCOc3ccc(C)cc32)cc1 ... 679
